# Assay: in vivo
# Settings: male, NRG, mouse, iv, total radioactivity, Biodistribution Stomach Mean
Numbered stars: 1 amine (or outer) side, 2 acyl side, 3 side chain; on linkers, the order of the positions; unused ones are H or OH. Square brackets hold non-standard residues; d marks the D form. Peptide text beside a SMILES is read from it. * marks the point of attachment. DOTA = O=C(O)CN1CCN(CC(=O)O)CCN(CC(=O)*)CCN(CC(=O)O)CC1; Leuψ(CH2N)ThzNH2 = CC(C)C[C@@H](CN1CSC[C@H]1C(N)=O)N*; NMeH = CN[C@@H](Cc1c[nH]cn1)C(=O)O; X1 = O=C(CN1CCC(N[*:1])CC1)[*:2]; Tle = CC(C)(C)[C@H](N)C(=O)O; Thz = O=C(O)[C@@H]1CSCN1
tissue uptake at 1 h by entry:
Report only the number, with the unit %ID/g understood.

Molecule	Output unit	Measured value
CC(C)C[C@H](NC(=O)[C@H](Cc1c[nH]cn1)N(C)C(=O)CNC(=O)[C@@H](NC(=O)[C@H](C)NC(=O)[C@H](Cc1c[nH]c2ccccc12)NC(=O)[C@H](CCC(N)=O)NC(=O)[C@@H](Cc1ccccc1)NC(=O)CN1CCC(NC(=O)CN2CCN(CC(=O)O)CCN(CC(=O)O)CCN(CC(=O)O)CC2)CC1)C(C)C)C(=O)N1CSC[C@H]1C(N)=O [^68Ga-LW01107, metal not drawn]	%ID/g	0.07
CC(C)C[C@H](NC(=O)[C@H](Cc1cnc[nH]1)N(C)C(=O)CNC(=O)[C@@H](NC(=O)[C@H](C)NC(=O)[C@H](Cc1c[nH]c2ccccc12)NC(=O)[C@H](CCC(N)=O)NC(=O)[C@@H](Cc1ccccc1)NC(=O)CN1CCC(NC(=O)CN2CCN(CC(=O)O)CCN(CC(=O)O)CCN(CC(=O)O)CC2)CC1)C(C)(C)C)C(=O)N1CSC[C@H]1C(N)=O [^68Ga-LW01110, metal not drawn]	%ID/g	0.94

# input molecule: CC(C)C[C@H](NC(=O)[C@H](Cc1cnc[nH]1)N(C)C(=O)CNC(=O)[C@@H](NC(=O)[C@H](C)NC(=O)[C@H](Cc1c[nH]c2ccccc12)NC(=O)[C@H](Cc1c[nH]cn1)NC(=O)[C@@H](Cc1ccccc1)NC(=O)CN1CCC(NC(=O)CN2CCN(CC(=O)O)CCN(CC(=O)O)CCN(CC(=O)O)CC2)CC1)C(C)(C)C)C(=O)N1CSC[C@H]1C(N)=O [^68Ga-LW01142, metal not drawn] ({DOTA}-[X1][dF]HWA[Tle]G[NMeH]L[Thz]-NH2) ; wanted: its tissue uptake at 1 h 0.98

# repeat for CC(C)C[C@H](NC(=O)[C@H](Cc1c[nH]cn1)NC(=O)CNC(=O)[C@@H](NC(=O)[C@H](C)NC(=O)[C@H](Cc1c[nH]c2ccccc12)NC(=O)[C@H](CCC(N)=O)NC(=O)[C@@H](Cc1ccccc1)NC(=O)CN1CCC(NC(=O)CN2CCN(CC(=O)O)CCN(CC(=O)O)CCN(CC(=O)O)CC2)CC1)C(C)(C)C)C(=O)N1CSC[C@H]1C(N)=O [^68Ga-LW01108, metal not drawn] 0.89

Also, CC(C)C[C@@H](CN1CSC[C@H]1C(N)=O)NC(=O)[C@H](Cc1c[nH]cn1)NC(=O)CNC(=O)[C@@H](NC(=O)[C@H](C)NC(=O)[C@H](Cc1c[nH]c2ccccc12)NC(=O)[C@H](CCC(N)=O)NC(=O)[C@@H](Cc1ccccc1)NC(=O)CN1CCC(NC(=O)CN2CCN(CC(=O)O)CCN(CC(=O)O)CCN(CC(=O)O)CC2)CC1)C(C)(C)C [^68Ga-LW01158, metal not drawn] ({DOTA}-[X1][dF]QWA[Tle]GH-{Leuψ(CH2N)ThzNH2}) please. 1.3
